biological target: Cyclin-dependent kinase 8 (Homo sapiens, UniProt P49336)
Sequence (P49336 whole entry): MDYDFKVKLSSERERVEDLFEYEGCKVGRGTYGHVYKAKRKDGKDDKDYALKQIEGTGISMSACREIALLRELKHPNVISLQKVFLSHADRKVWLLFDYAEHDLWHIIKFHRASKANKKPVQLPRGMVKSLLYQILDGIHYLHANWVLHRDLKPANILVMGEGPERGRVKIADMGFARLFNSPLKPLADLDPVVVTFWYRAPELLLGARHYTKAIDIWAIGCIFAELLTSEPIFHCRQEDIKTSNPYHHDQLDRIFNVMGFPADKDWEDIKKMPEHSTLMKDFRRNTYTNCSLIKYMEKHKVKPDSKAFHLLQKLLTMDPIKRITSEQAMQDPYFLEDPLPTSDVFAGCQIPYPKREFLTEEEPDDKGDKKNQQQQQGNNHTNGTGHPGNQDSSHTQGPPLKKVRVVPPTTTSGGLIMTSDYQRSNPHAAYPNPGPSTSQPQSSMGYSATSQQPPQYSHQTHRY
property label: IC50

1) Cn1cc(-c2ccc(N(C(=O)NCc3ccccc3)C3CCC(Nc4ccc(C#N)cn4)CC3)cc2)ccc1=O (stereo unspecified) = > 10 µM

====

molecular target: Cyclin-dependent kinase 7 (Homo sapiens); assay: Inhibition of CDK7 (unknown origin)
Sequence (P50613 whole entry): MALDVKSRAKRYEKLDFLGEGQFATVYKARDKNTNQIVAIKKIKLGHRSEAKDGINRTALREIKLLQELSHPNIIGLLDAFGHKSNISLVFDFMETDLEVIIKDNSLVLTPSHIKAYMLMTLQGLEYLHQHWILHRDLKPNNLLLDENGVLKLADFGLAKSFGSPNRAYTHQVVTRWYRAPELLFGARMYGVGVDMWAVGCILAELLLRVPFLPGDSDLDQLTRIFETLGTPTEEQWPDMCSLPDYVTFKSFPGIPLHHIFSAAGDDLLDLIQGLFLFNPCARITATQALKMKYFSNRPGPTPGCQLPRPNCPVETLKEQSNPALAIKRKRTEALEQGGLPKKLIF
property label: IC50

1) Cn1cc(-c2ccc(N(C(=O)NCc3ccccc3)C3CCC(Nc4ccc(C#N)cn4)CC3)cc2)ccc1=O (stereo unspecified) = > 10 µM

====

target: Cyclin-dependent kinase 12 (Homo sapiens); test: Inhibition of CDK12 (unknown origin) in presence of high ATP
pIC50: −log10 of the molar value.
property label: pIC50

1. CC(C)n1cnc2c(NCc3nc4ccc(F)c(F)c4[nH]3)nc(N3CCCC[C@H]3CCO)nc21 = 6.31
2. CCn1cnc2c(NCc3nc4ccc(F)c(F)c4[nH]3)nc(N3CCCC[C@H]3CCO)nc21 = 6.99

====

molecular target: Cyclin-dependent kinase 2 (Homo sapiens, UniProt P24941)
pIC50: −log10 of the molar value.
property label: pIC50

1) CC(=O)N(c1ccc(-c2cnn(C)c2)cc1)C1CCC(Nc2ccc(C#N)cn2)CC1 (stereo unspecified) = 6.33

====

target: Cyclin-dependent kinase 9 (Homo sapiens)
Sequence (P50750 whole entry): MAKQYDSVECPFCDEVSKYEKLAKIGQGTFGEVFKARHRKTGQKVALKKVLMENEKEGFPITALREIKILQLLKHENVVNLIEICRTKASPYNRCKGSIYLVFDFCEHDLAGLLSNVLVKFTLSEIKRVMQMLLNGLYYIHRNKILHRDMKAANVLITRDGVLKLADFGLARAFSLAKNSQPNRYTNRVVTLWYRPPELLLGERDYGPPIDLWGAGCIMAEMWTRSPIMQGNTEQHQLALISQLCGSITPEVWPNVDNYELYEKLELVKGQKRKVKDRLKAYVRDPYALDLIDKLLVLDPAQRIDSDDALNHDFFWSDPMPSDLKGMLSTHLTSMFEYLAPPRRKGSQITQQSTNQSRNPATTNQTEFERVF
property label: IC50

1. Cn1cc(-c2ccc(N(C(=O)NCc3ccccc3)C3CCC(Nc4ccc(C#N)cn4)CC3)cc2)ccc1=O (stereo unspecified) = 16 µM

====

experiment: Solubility of the compound at pH 6.8; format: physicochemical; settings: buffer
Known solubility of a selection of compounds
property label: solubility (µg/mL)

1) N#Cc1ccc(NC2CCC(N(C(=O)NCc3ccccc3)c3ccc(-c4cccnc4)cc3)CC2)nc1 (configuration not stated) = 0.67
2) Cn1cc(-c2ccc(N(C(=O)NCc3ccccc3)C3CCC(Nc4ccc(C#N)cn4)CC3)cc2)ccc1=O (configuration not stated) = 7.7
3) Cn1cccc(-c2ccc(N(C(=O)NCc3ccccc3)C3CCC(Nc4ccc(C#N)cn4)CC3)cc2)c1=O (configuration not stated) = 4.7
4) Cn1cc(-c2ccc(N(C(=O)NCc3ccccc3)C3CCC(Nc4ccc(C#N)cn4)CC3)cc2)cn1 (configuration not stated) = 0.33
5) N#Cc1ccc(NC2CCC(N(C(=O)NCc3ccccc3)c3ccccc3)CC2)nc1 (configuration not stated) = 4

====

molecular target: Cyclin-dependent kinase 12 (Homo sapiens, UniProt Q9NYV4); experiment: Inhibition of CDK12 (unknown origin)
Sequence (Q9NYV4 whole entry): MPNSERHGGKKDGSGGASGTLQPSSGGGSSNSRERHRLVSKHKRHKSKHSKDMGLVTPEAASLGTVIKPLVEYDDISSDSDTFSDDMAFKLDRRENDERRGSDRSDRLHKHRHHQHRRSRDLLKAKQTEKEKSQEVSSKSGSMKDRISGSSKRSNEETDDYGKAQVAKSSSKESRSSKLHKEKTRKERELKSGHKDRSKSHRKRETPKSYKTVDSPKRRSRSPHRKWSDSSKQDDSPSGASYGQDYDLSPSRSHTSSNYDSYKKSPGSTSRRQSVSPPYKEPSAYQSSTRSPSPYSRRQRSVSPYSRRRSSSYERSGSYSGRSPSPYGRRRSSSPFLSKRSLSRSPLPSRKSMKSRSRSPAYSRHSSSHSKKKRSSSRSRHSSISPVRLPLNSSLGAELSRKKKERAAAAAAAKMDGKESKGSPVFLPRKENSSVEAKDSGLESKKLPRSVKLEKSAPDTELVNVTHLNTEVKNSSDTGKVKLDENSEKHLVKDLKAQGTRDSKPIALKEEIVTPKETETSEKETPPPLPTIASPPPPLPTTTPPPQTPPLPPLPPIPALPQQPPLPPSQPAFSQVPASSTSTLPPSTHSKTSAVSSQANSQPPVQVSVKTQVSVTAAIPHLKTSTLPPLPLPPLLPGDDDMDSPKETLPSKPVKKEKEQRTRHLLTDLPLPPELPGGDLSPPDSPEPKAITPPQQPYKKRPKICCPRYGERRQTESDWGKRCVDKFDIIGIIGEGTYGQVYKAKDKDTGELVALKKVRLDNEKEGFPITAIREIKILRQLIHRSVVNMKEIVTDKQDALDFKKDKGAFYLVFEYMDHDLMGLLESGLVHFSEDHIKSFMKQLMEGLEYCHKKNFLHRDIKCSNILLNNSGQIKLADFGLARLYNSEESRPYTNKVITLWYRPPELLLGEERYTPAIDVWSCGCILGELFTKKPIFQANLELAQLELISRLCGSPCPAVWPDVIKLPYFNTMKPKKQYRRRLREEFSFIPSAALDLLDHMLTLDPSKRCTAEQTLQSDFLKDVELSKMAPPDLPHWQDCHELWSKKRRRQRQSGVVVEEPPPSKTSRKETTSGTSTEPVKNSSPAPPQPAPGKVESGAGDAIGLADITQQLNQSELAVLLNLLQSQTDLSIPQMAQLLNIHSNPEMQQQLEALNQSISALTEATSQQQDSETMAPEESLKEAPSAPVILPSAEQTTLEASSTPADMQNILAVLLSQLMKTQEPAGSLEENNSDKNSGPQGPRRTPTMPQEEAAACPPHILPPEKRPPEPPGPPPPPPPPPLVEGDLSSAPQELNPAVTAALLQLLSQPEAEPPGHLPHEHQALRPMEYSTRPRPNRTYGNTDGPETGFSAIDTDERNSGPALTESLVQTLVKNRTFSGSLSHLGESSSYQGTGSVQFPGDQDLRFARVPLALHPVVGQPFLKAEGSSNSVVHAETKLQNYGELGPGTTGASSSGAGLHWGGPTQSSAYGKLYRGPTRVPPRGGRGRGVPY
Known IC50 of a selection of compounds
property label: IC50 (µM)

1) Cn1cc(-c2ccc(N(C(=O)NCc3ccccc3)C3CCC(Nc4ccc(C#N)cn4)CC3)cc2)cn1 (centres undefined) = 0.063
2) CC(C)(C)n1nc(Cc2cccc3ccccc23)c2c(N)ncnc21 = 0.1
3) N#Cc1ccc(NC2CCC(N(C(=O)NCc3ccccc3)c3ccc(-c4cccnc4)cc3)CC2)nc1 (centres undefined) = 0.059
4) Fc1cccc(-n2cnc3c(NCc4nc5ccc(F)c(F)c5[nH]4)nc(N4CCOCC4)nc32)c1 = 0.086
5) Cn1cccc(-c2ccc(N(C(=O)NCc3ccccc3)C3CCC(Nc4ccc(C#N)cn4)CC3)cc2)c1=O (centres undefined) = 0.25
6) N#Cc1ccc(NC2CCC(N(C(=O)NCc3ccccc3)c3ccccc3)CC2)nc1 (centres undefined) = 0.75
7) Cn1ccc(-c2ccc(N(C(=O)NCc3ccccc3)C3CCC(Nc4ccc(C#N)cn4)CC3)cc2)cc1=O (centres undefined) = 0.044
8) CC(=O)N(c1ccc(-c2cnn(C)c2)cc1)C1CCC(Nc2ccc(C#N)cn2)CC1 (centres undefined) = 0.13
9) Cn1c(-c2ccc(N(C(=O)NCc3ccccc3)C3CCC(Nc4ccc(C#N)cn4)CC3)cc2)cccc1=O (centres undefined) = 0.31
